- ASSAY: S. cerevisiae RM11-1a growth modifiers, primary screen, strain RM11-1a, OD600, basal, 24 h (AID 1177);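 also: cultures grown under basal conditions with no added stressor; test concentration not given here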
- EXPERIMENTAL_CONDITIONS: OD600, 24 h, higher = more signal, called active from +8 up or from −8 down
Reported z-score values for a set of molecules
I'd appreciate a reply containing only the number, no unit.

| MOLECULE | z-score |
| --- | --- |
| [N-]=[N+]=Nc1ccccc1C[C@@]1(C(=O)O)N=C(c2ccc(OCCCO)cc2)O[C@@H]1c1ccccc1 | -0.583 |
| CN(C)CCCCNC(=O)[C@H]1C[C@H]2C(=O)N3CCC[C@H]3C(=O)N2[C@H]1c1ccc(O)cc1 | -0.35 |
| CN1C(=O)C2C=CC(C(O)Cc3ccccc3)N(N(c3ccccc3)c3ccccc3)C2C1=O (centres undefined) | 0.303 |

Consider the molecule shown here: C=C(COC)/C(=C/C[C@@H](OC(=O)c1ccncc1)c1ccc(OCCO)cc1)c1cnc2ccccc2c1 What is its recorded z-score?
-0.0819

====

- MEASUREMENT_TARGET: NADPH oxidase 2 (Homo sapiens) (UniProt P04839)
- Sequence (P04839 whole entry, looked up): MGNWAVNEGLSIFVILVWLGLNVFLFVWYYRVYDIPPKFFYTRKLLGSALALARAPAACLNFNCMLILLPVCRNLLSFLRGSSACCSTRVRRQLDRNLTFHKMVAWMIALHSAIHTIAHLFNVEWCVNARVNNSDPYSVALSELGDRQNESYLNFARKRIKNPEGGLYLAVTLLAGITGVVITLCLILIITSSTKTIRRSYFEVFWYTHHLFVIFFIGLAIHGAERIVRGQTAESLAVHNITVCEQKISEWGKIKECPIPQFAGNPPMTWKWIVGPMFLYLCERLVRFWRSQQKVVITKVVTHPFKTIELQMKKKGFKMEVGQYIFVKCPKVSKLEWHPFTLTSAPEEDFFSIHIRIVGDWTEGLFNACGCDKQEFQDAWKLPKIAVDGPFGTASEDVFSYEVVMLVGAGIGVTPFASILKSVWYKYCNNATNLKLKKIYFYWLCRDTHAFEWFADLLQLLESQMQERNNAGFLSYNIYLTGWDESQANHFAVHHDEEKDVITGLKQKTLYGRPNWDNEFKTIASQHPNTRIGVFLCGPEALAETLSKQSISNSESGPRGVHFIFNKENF
- ASSAY: NOX2-dependent H2O2 signal modulators, primary screen, NOX inhibitor project, cell-based, HEK293-NOX2, PMA-stimulated, Amplex Red fluorescence (AID 1159); also: test concentration not given here
- EXPERIMENTAL_CONDITIONS: 45 min, higher = more signal, called active from +8 up or from −8 down
PARAMETER_MEASURED: z-score
// return just the number, without any unit appended

| MOLECULE | ENDPOINT_VALUE |
| --- | --- |
| CN1C(=O)[C@@]2(CCS(=O)(=O)c3ccccc3)N=C(c3ccc(OCCCO)cc3)O[C@H]2c2ccccc21 | -2.59 |
| CC(C)(C)OC(=O)CC[C@]1(C(=O)NCCN2CCOCC2)N=C(c2ccc(OCCCO)cc2)O[C@H]1c1ccccc1N=[N+]=[N-] | -2.46 |
| COc1cc(CO)cc(I)c1O[C@H]1C=C(C(=O)NCCO)C[C@@H](N(CC2CCCCC2)C(=O)c2ccc(C(F)(F)F)cc2)[C@@H]1O | -0.363 |
| CCN(CC)c1ccc(N2CC=CC34O[C@@H]5/C=C\CCC(C)OC(=O)C5[C@H]3C(=O)N(CCO)[C@@H]4C2=O)cc1 (some centres not stated) | -0.361 |
| [N-]=[N+]=NCc1ccccc1C[C@@]1(C(N)=O)N=C(c2ccc(OCCCO)cc2)O[C@@H]1c1ccccc1CN=[N+]=[N-] | 0.415 |
| C=C(COC)/C(=C/C[C@@H](OC(=O)c1ccncc1)c1ccc(OCCO)cc1)c1cnc2ccccc2c1 | -1.17 |

Query: z-score; subject: C=CCOC(=O)[C@@H]1[C@H]2C(=O)O[C@H](c3ccccc3)[C@H](c3ccccc3)N2[C@H](c2ccc(OCCOC(=O)[C@H]3C[C@H]4C(=O)N[C@@H](CCCC[N+](C)(C)C)C(=O)N4[C@H]3c3ccc(O)cc3)cc2)[C@@]12C(=O)Nc1ccc(I)cc12
1.4

====

- System: Human papillomavirus type 1a E7 protein (residues 1-88)
- ASSAY: HPV1a E7 small-molecule binders, primary screen, biochemical, small-molecule microarray, residues 1-88, 635 nm (AID 1129)
- EXPERIMENTAL_CONDITIONS: small-molecule microarray binding, fluorescence 635 nm; higher = more signal
PARAMETER_MEASURED: composite z-score
In your answer, state the number alone without any accompanying words.

| MOLECULE | composite z-score |
| --- | --- |
| C=C(CCCC)C(=O)CC[C@@H](OC(=O)c1ccccc1-c1ccccc1C(=O)O)c1cccc(OCCO)c1 | 0.53 |
| C=C(COC)/C(=C/C[C@@H](OC(=O)c1ccncc1)c1ccc(OCCO)cc1)c1cnc2ccccc2c1 | 1.13 |
| COc1ccc(C(O)C2C=CC3C(=O)N(c4ccccc4)C(=O)C3N2Nc2ccccc2)cc1OCc1ccccc1 (centres undefined) | 1.24 |

# input molecule: O=C1c2ccccc2[C@](Cc2ccccc2I)(C(=O)NCCN2CCOCC2)[C@H](c2ccc(CO)cc2)N1Cc1ccccc1 ; wanted: its composite z-score
1.2
